assay explanation: Hydrolysis in human blood
Type: in vitro ADME
property name: half-life

Quick one: half-life of CC(=O)Oc1ccccc1C(=O)O[C@H]1CO[C@H]2[C@@H]1OC[C@H]2OC(=O)c1ccccc1O [Compound 2, Isosorbide-2-aspirinate-5-salicylate] ?
< 2 min

The values you see were collected from patent US8486974B2.
